Assay: in vivo
Conditions: male, rat, in vivo, sc, 3 mg/kg

compound	Cmax / ng/mL
CN1[C@@H](CC(=O)c2ccccc2)CCC[C@H]1C[C@H](O)c1ccccc1	162
CN1[C@H](CC(=O)c2ccccc2)CCC[C@H]1C[C@H](O)c1ccccc1 (single isomer, unassigned; epimer 2) [Epimer]	54.4

----------
Documented AUC(0-t) across a set of molecules
Assay: in vivo
Settings: female, rat, in vivo, iv, 2 mg/kg

molecule	AUC(0-t) / µg·h/mL
CN1[C@H](CC(=O)c2ccccc2)CCC[C@H]1C[C@H](O)c1ccccc1 (single isomer, unassigned; epimer 2) [Epimer]	0.0754
CN1[C@@H](CC(=O)c2ccccc2)CCC[C@H]1C[C@H](O)c1ccccc1 [Lobeline]	0.133

These data points were gathered from patent US20090118331A1.
